details: human
Consider the following substances and their measured Hepatotoxicity (granulomatous hepatitis) readings.
Metric: Hepatotoxicity (granulomatous hepatitis)

> print(dat)
                substance                                    metric  reported.value
 1            PALIVIZUMAB  Hepatotoxicity (granulomatous hepatitis)               0
 2       REVIPARIN SODIUM  Hepatotoxicity (granulomatous hepatitis)               0
 3        POVIDONE-IODINE  Hepatotoxicity (granulomatous hepatitis)               0
 4               COLISTIN  Hepatotoxicity (granulomatous hepatitis)               0
 5             ADALIMUMAB  Hepatotoxicity (granulomatous hepatitis)               0
 6             IVERMECTIN  Hepatotoxicity (granulomatous hepatitis)               0
 7             INFLIXIMAB  Hepatotoxicity (granulomatous hepatitis)               0
 8            BCG VACCINE  Hepatotoxicity (granulomatous hepatitis)              32
 9     INTERFERON ALFA-N1  Hepatotoxicity (granulomatous hepatitis)               0
10  GEMTUZUMAB OZOGAMICIN  Hepatotoxicity (granulomatous hepatitis)               0
11          INSULIN HUMAN  Hepatotoxicity (granulomatous hepatitis)               0
12             ENOXAPARIN  Hepatotoxicity (granulomatous hepatitis)               0
13      TINZAPARIN SODIUM  Hepatotoxicity (granulomatous hepatitis)               0
14        INTERFERON ALFA  Hepatotoxicity (granulomatous hepatitis)               0
15     NADROPARIN CALCIUM  Hepatotoxicity (granulomatous hepatitis)               0
16             ETANERCEPT  Hepatotoxicity (granulomatous hepatitis)               0
17           ANISTREPLASE  Hepatotoxicity (granulomatous hepatitis)               0
18           EPOETIN ALFA  Hepatotoxicity (granulomatous hepatitis)               0
19             FILGRASTIM  Hepatotoxicity (granulomatous hepatitis)               0

###

details: human, serum
# binarize Hepatotoxicity (acute): threshold 2 inclusive, high side 1 (yes), low side 0 (no)

Compound	Assigned Category
C=COCC(F)(F)F	1 (yes)
O=C(O)C1=C(C[n+]2ccc(CCS(=O)(=O)[O-])cc2)CS[C@@H]2[C@H](NC(=O)[C@H](NC(=O)c3[nH]cnc3C(=O)O)c3ccccc3)C(=O)N12	0 (no)
NC(=O)N1c2ccccc2C=Cc2ccccc21 [CARBAMAZEPINE]	1 (yes)
O=C(COc1ccc(Cl)cc1)N1CCN(Cc2ccc3c(c2)OCO3)CC1 [FIPEXIDE]	1 (yes)
O=C(CCCN1CCC(O)(c2ccc(Br)cc2)CC1)c1ccc(F)cc1	0 (no)
CCOC(=O)[C@H](CCc1ccccc1)N[C@@H](C)C(=O)N1[C@H](C(=O)O)C[C@@H]2CCC[C@@H]21	0 (no)
CN1C(=O)CCS(=O)(=O)C1c1ccc(Cl)cc1 (centres undefined)	1 (yes)
CCC[C@@H]1C[C@@H](C(=O)N[C@@H]([C@H]2O[C@H](SC)[C@H](O)[C@@H](O)[C@H]2O)[C@@H](C)O)N(C)C1	0 (no)
C[Si](C)(C)c1cccc(C(=O)C(F)(F)F)c1	0 (no)
C[C@]12C=CC(=O)C=C1CC[C@@H]1[C@@H]2C(=O)C[C@@]2(C)[C@H]1CC[C@]2(O)C(=O)CO	0 (no)
Nc1nc(N)nc(Nc2ccc([As]3SCC(CO)S3)cc2)n1 (centres undefined)	0 (no)
COC1=C(OC)C(=O)C(CCCCCCCCCCO)=C(C)C1=O	0 (no)
Cc1ncc(CSSCc2cnc(C)c(O)c2CO)c(CO)c1O	1 (yes)
Cc1c(OCC(F)(F)F)ccnc1C[S+]([O-])c1nc2ccccc2[nH]1 (centres undefined)	1 (yes)
Cc1ccc(C(=O)Nc2ccc(S(=O)(=O)O)c3cc(S(=O)(=O)O)cc(S(=O)(=O)O)c23)cc1NC(=O)c1cccc(NC(=O)Nc2cccc(C(=O)Nc3cc(C(=O)Nc4ccc(S(=O)(=O)O)c5cc(S(=O)(=O)O)cc(S(=O)(=O)O)c45)ccc3C)c2)c1	1 (yes)
COC(=O)[C@H](c1ccccc1Cl)N1CCc2sccc2C1	1 (yes)
FCOC(C(F)(F)F)C(F)(F)F	1 (yes)
CNC(=O)c1c(I)c(C(=O)NCC(=O)Nc2c(I)c(C(=O)O)c(I)c(C(=O)NCCO)c2I)c(I)c(N(C)C(C)=O)c1I	0 (no)
CC[C@@H](CO)NC(=O)[C@@H]1C=C2c3cccc4[nH]cc(c34)C[C@H]2N(C)C1	0 (no)
O=C(c1ccc(OCCN2CCCCC2)cc1)c1c(-c2ccc(O)cc2)sc2cc(O)ccc12	0 (no)
CNC(=O)c1cccc2c(Nc3ccc(NS(C)(=O)=O)cc3OC)c3cccc(C)c3nc12	0 (no)
COC(=O)Nc1nc2ccc(C(=O)c3ccccc3)cc2[nH]1	1 (yes)
NS(=O)(=O)c1cc(C(=O)O)cc(N2CCCC2)c1Oc1ccccc1 [PIRETANIDE]	0 (no)
CN1CC[C@@H]2Nc3ccccc3[C@@H]2C1.Cl.Cl	0 (no)
Cc1cc(=O)n(-c2ccccc2)n1C [ANTIPYRINE]	0 (no)
CCc1oc2ccccc2c1C(=O)c1cc(I)c(O)c(I)c1	1 (yes)
C(=N\NC1=NCCN1)/c1c2ccccc2c(/C=N/NC2=NCCN2)c2ccccc12	0 (no)
CCCNC(=O)NS(=O)(=O)c1ccc(Cl)cc1 [CHLORPROPAMIDE]	1 (yes)
CC[N+](C)(C/C=C/C1=C(C(=O)[O-])N2C(=O)[C@@H](NC(=O)/C(=N\OCF)c3nsc(N)n3)[C@H]2SC1)CC(N)=O (some centres undefined)	0 (no)
O=C(O)CN1C(=O)c2cccc3cccc(c23)C1=O	0 (no)

###

settings: human, serum
Please use true (1) whenever Hepatotoxicity (acute) is not below 1, and false (0) whenever it is.

> print(dat)
                                   compound  assigned.category
1  CC(Cc1ccccc1)NCCC(c1ccccc1)c1ccccc1 (centres undefined)          false (0)
2  CCCc1c2oc(C(=O)O)cc(=O)c2cc2c(=O)cc(C(=O)O)n(CC)c12          false (0)
3    O=C(O)Cc1sc(-c2ccccc2)nc1-c1ccc(Cl)cc1           true (1)
4  CCc1nn(CCCN2CCN(c3cccc(Cl)c3)CC2)c(=O)n1CCOc1ccccc1           true (1)
5  C[C@@](O)(/C=C/[C@H]1CC=CC(=O)O1)[C@@H](C[C@@H](O)\C=C/C=C\C=C\CO)OP(=O)(O)O          false (0)
6                         Nc1nc(=O)[nH]cc1F           true (1)
7  CC(=O)OCOC(=O)C1=C(COC(N)=O)SC2[C@H]([C@H](C)O)C(=O)N12 (some centres undefined)          false (0)

###

# Hepatotoxicity (time to onset) values compiled below
assay: Times to onset, minimal and maximal, observed in the indexed observations. [column 'DELAI' in source]; settings: human
Metric: Hepatotoxicity (time to onset)

> print(dat)
                                    compound                          metric      reported.value
 1  CN1C[C@H](CC#N)C[C@@H]2c3cccc4[nH]c(Cl)c(c34)C[C@H]21  Hepatotoxicity (time to onset)   4 days - 5 months
 2  CCC1(c2ccccc2)C(=O)NC(=O)N(C)C1=O (stereo not drawn)  Hepatotoxicity (time to onset)            3 months
 3  CC(=O)[C@H]1CC[C@H]2[C@@H]3CC[C@@H]4C[C@H](O)CC[C@]4(C)[C@H]3CC[C@]12C  Hepatotoxicity (time to onset)              1 days
 4  CCc1nc(N)nc(N)c1-c1ccc(Cl)cc1.COc1ncnc(NS(=O)(=O)c2ccc(N)cc2)c1OC  Hepatotoxicity (time to onset)    1 day - 3 months
 5  COc1cc2nc(N(C)CCCNC(=O)C3CCCO3)nc(N)c2cc1OC (stereo not drawn)  Hepatotoxicity (time to onset)            9 months
 6         O=C(O)c1cccnc1Nc1cccc(C(F)(F)F)c1  Hepatotoxicity (time to onset)  3 days - 3.5 weeks
 7  NCCCC[C@H](N[C@@H](CCc1ccccc1)C(=O)O)C(=O)N1CCC[C@H]1C(=O)O [LISINOPRIL ANHYDROUS]  Hepatotoxicity (time to onset)   9 days - 5 months
 8  CC(C)(C)NCC(O)c1cc(O)cc(O)c1 (stereo not drawn)  Hepatotoxicity (time to onset)   4 weeks - 8 weeks
 9  Nc1ccn([C@@H]2O[C@H](CO)[C@@H](O)C2(F)F)c(=O)n1  Hepatotoxicity (time to onset)    1 cure - 7 cures
10  COc1c(C)c2c(c(O)c1C/C=C(\C)CCC(=O)OCCN1CCOCC1)C(=O)OC2 [MYCOPHENOLATE MOFETIL]  Hepatotoxicity (time to onset)             2 weeks
11  CC1(C)NC(=O)N(c2ccc([N+](=O)[O-])c(C(F)(F)F)c2)C1=O [NILUTAMIDE]  Hepatotoxicity (time to onset)  1 month - 4 months
12  CC1=C(/C=C/C(C)=C/C=C/C(C)=C/C(=O)Nc2ccc(O)cc2)C(C)(C)CCC1 [FENRETINIDE]  Hepatotoxicity (time to onset)              1 week
13   Cc1nnc2n1-c1ccc(Cl)cc1C(c1ccccc1Cl)=NC2  Hepatotoxicity (time to onset)            4 months
14                               ClC=C(Cl)Cl  Hepatotoxicity (time to onset)     1 day - 6 weeks
15  CC(C)c1c(C(=O)Nc2ccccc2)c(-c2ccccc2)c(-c2ccc(F)cc2)n1CC[C@@H](O)C[C@@H](O)CC(=O)O  Hepatotoxicity (time to onset)   6 days - 7 months
16    Clc1ccccc1C(c1ccccc1)(c1ccccc1)n1ccnc1  Hepatotoxicity (time to onset)             17 days
17            CC(=O)Nc1cc([As](=O)(O)O)ccc1O  Hepatotoxicity (time to onset)   2 cures - 3 cures
18                             O=C(O)c1cccs1  Hepatotoxicity (time to onset)    3 days - 3 weeks
